Each entry below carries its measured pIC50, system: CK1δ (Homo sapiens).
Sequence (P48730 whole entry): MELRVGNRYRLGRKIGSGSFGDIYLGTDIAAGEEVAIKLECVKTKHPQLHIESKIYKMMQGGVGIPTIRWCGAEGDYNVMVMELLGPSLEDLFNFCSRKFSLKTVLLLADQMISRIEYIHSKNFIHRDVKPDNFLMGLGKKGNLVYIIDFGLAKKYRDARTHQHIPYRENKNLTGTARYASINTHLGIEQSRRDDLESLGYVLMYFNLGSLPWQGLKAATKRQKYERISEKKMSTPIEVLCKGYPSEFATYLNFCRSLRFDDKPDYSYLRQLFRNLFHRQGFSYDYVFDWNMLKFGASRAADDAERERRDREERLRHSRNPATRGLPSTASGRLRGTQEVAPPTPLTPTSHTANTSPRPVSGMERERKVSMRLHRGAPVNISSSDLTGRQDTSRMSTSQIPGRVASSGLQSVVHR
As a rule, pIC50 stands for the negative log10 of the concentration, concentration in M.

These recorded examples may help you get a feel for the data.
{"columns": ["molecule", "pIC50"],
 "data": [
  ["COCCN1Cc2nccc(-c3cn(C)nc3-c3ccc(F)cc3)c2C1=O [Compound G]", 7.38],
  ["Fc1ccc(-c2nc3ccc(N4CCNCC4)nn3c2-c2ccncc2)cc1 [Compound H]", 7.78]
]}

Next molecule, please.
Request: Name the recorded pIC50 for CNCc1cc(-c2cn(C)nc2-c2ccc(F)cc2)ccn1 [Compound I] .
Response: 7.24
